Recorded values, source paper PMC8954575.

measured_attribute: Kd
Reply with the number, then its unit.

The molecule NCCc1c[nH]c2ccc(O)cc12 , when measured on VicK (WalK) (Enterococcus faecium), yielded Kd of 4.5 mM
